# measuredOn: HLA-A*26:02
# test: IEDB peptide-MHC binding, purified MHC/competitive/fluorescence; filed as Kd, often an IC50 or EC50 that approximates it; bounds were set here for any values at or beyond the usual limits of such assays
# conditionParameters: source organism: Francisella tularensis subsp. tularensis FSC198
propertyMeasured: Kd

Q: Lookup: Kd / HLA-A*26:02 / `EFKRRLKDL`
Ans: ≥ 20 µM

---

# measuredOn: HLA-B*40:01
# test: IEDB peptide-MHC binding, purified MHC/direct/fluorescence; filed as Kd, often an IC50 or EC50 that approximates it; bounds were set here for any values at or beyond the usual limits of such assays
# conditionParameters: source organism: Influenza A virus (A/camel/Mongolia/1982(H1N1))
propertyMeasured: Kd

Q: Fill in the blank: the reported Kd of `KFFPSSSYR` is ____.
Ans: ≥ 20 µM
